B1: tRNA (parent)
chain: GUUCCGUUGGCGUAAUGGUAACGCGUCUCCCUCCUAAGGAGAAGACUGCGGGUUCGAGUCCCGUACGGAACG

Variants of: B1
methodSummary: yeast fitness relative to wild type (ratio to wild type); higher = fitter; tRNA-Arg(CCU), competitive growth, 37 C, YPD
This sample holds only a part of the variants without activity.
yeast fitness overview
The reply should be a number, written without any unit.

In the examples that follow, each entry is paired with its recorded yeast fitness.
Record summary for GUUCCGUUGGUGUAAUGGUAACGCGUCUCCCUCCUAAGGAGAAGACUGCGGGUUCGUGUCCCGUUCGGAACG [C11U A57U A65U] : reported yeast fitness = 0.653

Record summary for GUUCCGUUGGCGUAAUGGUAACGCGUCUCCCUCCUUAGGAGAAGACUGCGGGUUCGAGUCCUGUUCGGAACG [A36U C62U A65U] : reported yeast fitness = 0.519

Record summary for GUUCCGUUGGGAUAAUGGUAACGCGUCUCCCUCCUAAGGAGAAGACUGCGGGUUCGAGUCGCGUACGAAACG [C11G G12A C61G G68A] : reported yeast fitness = 0.556

Record summary for GUUCCGUUGGCGUAGUGGUACCGCGUCUCCCUCCUAAGGAGAAGACUGCGGGUUCGAGUCCCGUUCGGAACG [A15G A21C A65U] : reported yeast fitness = 0.641

Record summary for GUUCCGUUGGAGUAAUGGUAAUGCGGCUCCCUCCUAAGGUGAAGACUCCGGGUUCGAGUCCCGUACGGAACG [C11A C22U U26G A40U G48C] : reported yeast fitness = 0.537

Others:
Record summary for GUUCCGUUGGCGUAAUGGUAACGCGUCUCCCUCCUAAGGAGAGGACUGCGCGUUCGAGUCCCGUACGGAACG [A43G G51C] : reported yeast fitness = 0.56

Record summary for GUUCCGUAGGCGUAAUGGUAACGCGUCUCCCUCCUAAGGAGAAGACUGCGGGUUCGUGUCCCGUACGGAACG [U8A A57U] : reported yeast fitness = 0.502

Record summary for GCUCCGUUGGCGUGAUGAUAACGCGUCUCCCACCUAAGGAGAAAACUGCGGGUUCGAGUCCCGUCCGGAACG [U2C A14G G18A U32A G44A A65C] : reported yeast fitness = 0.539

Record summary for GAGCCGUUGGCGUAAUGGUAACGCGUCUGGCUCCUAAGGAGAAGAGUGCGGGUUCGAGUCCCGUACGGAACG [U2A U3G C29G C30G C46G] : reported yeast fitness = 0.612

Record summary for GUGCCGUUCGCGUAAUGGUAACGCGUCUCCCUCCUAAGGAGAAGACUGCGGGUUCGAGUCCCGUACGGAACG [U3G G9C] : reported yeast fitness = 0.573

Record summary for GUUCUCUUGGCGUAAUGGUAACGCGUCUCCCUCCUAAGGAGAAGACUGCGGGUUCGAGUCCCGUACGGAACG [C5U G6C] : reported yeast fitness = 0.818
